Where do these numbers come from? They come from ChEMBL document CHEMBL1141219.

Target: Excitatory amino acid transporter 1 (Homo sapiens)
Assay: Binding affinity to human EAAT1 expressed in HEK293 cells in FMP (FLPR) assay
Format: functional, cell-based
Assignment: determine reported pKm for the given compounds.
Hey, just send me the number, nothing else.

Provide the documented pKm with Excitatory amino acid transporter 1 (Homo sapiens) as the system for N[C@@H](C[C@H](O)C(=O)O)C(=O)O
4.06

Also check C[C@H](C[C@H](N)C(=O)O)C(=O)O
4.92

Also check N[C@@H](CCC(=O)O)C(=O)O
5.04

Also check N[C@@H](C[C@@H](O)C(=O)O)C(=O)O
3
